Biological target: JAK2 (Homo sapiens (Human), UniProt O60674)
Sequence (O60674 849-1124): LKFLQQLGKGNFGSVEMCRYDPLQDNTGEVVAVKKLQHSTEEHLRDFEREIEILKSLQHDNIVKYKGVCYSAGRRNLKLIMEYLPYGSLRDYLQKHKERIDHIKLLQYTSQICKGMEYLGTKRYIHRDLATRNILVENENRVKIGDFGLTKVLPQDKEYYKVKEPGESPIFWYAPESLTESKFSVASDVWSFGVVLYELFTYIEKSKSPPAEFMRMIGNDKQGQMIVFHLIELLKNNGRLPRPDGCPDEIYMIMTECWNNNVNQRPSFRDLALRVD
Assay: JAK kinase assay (HTRF), JAK2
Settings: catalytic domain, ATP at Km (4 μM)
MEASURE NAME: EC50

Q. What measured EC50 is associated with O=C(N[C@@H](CO)c1ccccn1)[C@H]1CCN(c2ncnc3[nH]ccc23)CC12CC2 [Example 122] on JAK2 (Homo sapiens (Human), UniProt O60674)?
A. 0.0373 µM

Q. Next: N#CCC1(CNC(=O)C2CCN(c3ncnc4[nH]ccc34)CC23CC3)CC1 (stereo not drawn) [Example 112]
A. 0.0327 µM

Q. Next: O=C(NC[C@@H](O)C1CCCC1)[C@H]1CCN(c2ncnc3[nH]ccc23)CC12CC2 [Example 1]
A. 0.001 µM
